Published Ki for Sodium-dependent serotonin transporter (Homo sapiens, UniProt P31645), assembled from different documents, is shown next.
OBSERVATION_TYPE: Ki (µM)

COMPOUND: CC(C)CC(Oc1ccccc1F)C1CCNC1 (stereo not drawn)
ASSAYED_TARGET: Sodium-dependent serotonin transporter (Homo sapiens, UniProt P31645)
CMP: ≤
READING: 0.1

COMPOUND: Fc1ccc(Oc2ncccc2OC(c2ccccc2)C2CCCNC2)cc1 (single isomer, unassigned; stereoisomer b)
ASSAYED_TARGET: Sodium-dependent serotonin transporter (Homo sapiens, UniProt P31645)
CMP: =
READING: 0.59

COMPOUND: Fc1cccc(F)c1-c1nc(NC2CCNCC2)nc2ccccc12
ASSAYED_TARGET: Sodium-dependent serotonin transporter (Homo sapiens, UniProt P31645)
CMP: =
READING: 4.06

COMPOUND: COc1cccc2c1CC(Oc1ccc(Cl)cc1OC1CNC1)C2 (stereo not drawn)
ASSAYED_TARGET: Sodium-dependent serotonin transporter (Homo sapiens, UniProt P31645)
CMP: =
READING: 0.131

COMPOUND: C[C@H](Oc1ccccc1OCc1ccccc1)[C@H]1CCCNC1
ASSAYED_TARGET: Sodium-dependent serotonin transporter (Homo sapiens, UniProt P31645)
CMP: =
READING: 0.73

COMPOUND: CCc1cc(F)cc(F)c1O[C@@H](C1CC1)[C@H]1CCNC1
ASSAYED_TARGET: Sodium-dependent serotonin transporter (Homo sapiens, UniProt P31645)
CMP: ≤
READING: 0.01

COMPOUND: CC(C)[C@H](Oc1c(Cl)c(F)cc(F)c1Cl)[C@H]1CCNC1
ASSAYED_TARGET: Sodium-dependent serotonin transporter (Homo sapiens, UniProt P31645)
CMP: ≤
READING: 0.01

COMPOUND: CN(C)CCC(Oc1cccnc1)c1ccc(OCCCN2CCCCC2)cc1 (stereo not drawn)
ASSAYED_TARGET: Sodium-dependent serotonin transporter (Homo sapiens, UniProt P31645)
CMP: =
READING: 0.091

COMPOUND: CCCN1CCC(COc2ccc3c(c2)CN(C)CC3c2ccc(SC)cc2)CC1 (stereo not drawn)
ASSAYED_TARGET: Sodium-dependent serotonin transporter (Homo sapiens, UniProt P31645)
CMP: =
READING: 0.003
